Let's look at some compounds and their measured Conc. (nM), drug concentration in the brain.
- assay.text: Measurement of drug concentrations in the brain after foot-tapping
- Type: in vivo
- test.settings: male gerbil, 0.1 mg/kg iv, after foot-tapping was finished
readout.name: Conc. (nM), drug concentration in the brain

| compound | result |
| --- | --- |
| Cc1cc(F)ccc1-c1cc(C2CCCC(CC(=O)O)C2)ncc1N(C)C(=O)C(C)(C)c1cc(C(F)(F)F)cc(C(F)(F)F)c1 (stereo not drawn) | 48 |
| Cc1cc(F)ccc1-c1cc(C2CCC(C)(CC(=O)O)CC2)ncc1N(C)C(=O)C(C)(C)c1cc(C(F)(F)F)cc(C(F)(F)F)c1 (stereo not drawn) | 39 |
| Cc1cc(F)ccc1-c1cc([C@H]2CC[C@@H](CC(=O)O)CC2)ncc1N(C)C(=O)C(C)(C)c1cc(C(F)(F)F)cc(C(F)(F)F)c1 | 40 |

====

- target.system: human NK1 receptor (Homo sapiens (Human), UniProt P25103)
- Sequence (P25103 whole entry): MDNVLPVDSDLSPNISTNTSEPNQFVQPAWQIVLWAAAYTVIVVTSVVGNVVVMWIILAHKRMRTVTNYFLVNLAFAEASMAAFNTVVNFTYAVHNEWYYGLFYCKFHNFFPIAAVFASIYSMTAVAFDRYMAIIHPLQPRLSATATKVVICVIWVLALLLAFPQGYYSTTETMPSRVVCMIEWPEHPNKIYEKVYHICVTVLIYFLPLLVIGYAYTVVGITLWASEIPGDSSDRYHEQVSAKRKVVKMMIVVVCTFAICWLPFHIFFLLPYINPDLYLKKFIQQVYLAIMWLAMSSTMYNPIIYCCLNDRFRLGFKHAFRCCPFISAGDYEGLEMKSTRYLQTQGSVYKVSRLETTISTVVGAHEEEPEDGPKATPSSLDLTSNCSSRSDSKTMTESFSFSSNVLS
- assay.text: Inhibitory effect on human NK1 receptor (substance P-induced increase in intracellular calcium concentration)
- Assay type: cell-based
- test.settings: substance P 1 μM, compound 0.1 μM; read-out: SPRR (%), Substance P-Response Remaining (intracellular calcium concentration)
Binarize remaining activity at 0.1 µM at 30%; below is label 1, at or above is label 0.

| molecule | cat |
| --- | --- |
| Cc1ccccc1-c1cc(C2CCC(CC(=O)O)CC2)ncc1N(C)C(=O)C(C)(C)c1cc(C(F)(F)F)cc(C(F)(F)F)c1 (centres unmarked) | label 0 |
| Cc1cc(F)ccc1-c1cc(C2CCC(O)(CC(=O)O)CC2)ncc1N(C)C(=O)C(C)(C)c1cc(C(F)(F)F)cc(C(F)(F)F)c1 (centres unmarked) | label 1 |
| Cc1cc(F)ccc1-c1cc(C2CCC(CC(=O)O)CC2)ncc1N(C)C(=O)C(C)(CO)c1cc(C(F)(F)F)cc(C(F)(F)F)c1 (centres unmarked) | label 1 |
| Cc1cc(F)ccc1-c1cc(C2CCC(CCC(=O)O)CC2)ncc1N(C)C(=O)C(C)(C)c1cc(C(F)(F)F)cc(C(F)(F)F)c1 (centres unmarked) | label 1 |
| Cc1cc(F)ccc1-c1cc(C2CCC3(CC2)CC3C(=O)O)ncc1N(C)C(=O)C(C)(C)c1cc(C(F)(F)F)cc(C(F)(F)F)c1 (centres unmarked) | label 1 |
| Cc1cc(F)ccc1-c1cc([C@H]2CC[C@@H](CC(=O)O)CC2)ncc1N(C)C(=O)C(C)(C)c1cc(C(F)(F)F)cc(C(F)(F)F)c1 | label 1 |
| Cc1cc(F)ccc1-c1cc(C2CCC(C(=O)O)CC2)ncc1N(C)C(=O)C(C)(C)c1cc(C(F)(F)F)cc(C(F)(F)F)c1 (centres unmarked) | label 1 |
| Cc1cc(F)ccc1-c1cc(C2CCC(CC(=O)O)CC2)nc(CO)c1N(C)C(=O)C(C)(C)c1cc(C(F)(F)F)cc(C(F)(F)F)c1 (centres unmarked) | label 1 |
| Cc1cc(F)ccc1-c1cc([C@H]2CC[C@H](CC(=O)O)CC2)nc(C#N)c1N(C)C(=O)C(C)(C)c1cc(C(F)(F)F)cc(C(F)(F)F)c1 | label 1 |
| Cc1cc(F)ccc1-c1cc(C2(C)CCCC(CC(=O)O)C2)ncc1N(C)C(=O)C(C)(C)c1cc(C(F)(F)F)cc(C(F)(F)F)c1 (centres unmarked) | label 0 |
| Cc1cc(F)ccc1-c1cc(C2CCC(C)(CC(=O)O)CC2)ncc1N(C)C(=O)C(C)(C)c1cc(C(F)(F)F)cc(C(F)(F)F)c1 (centres unmarked) | label 1 |

====

- target.system: UniProtKB P25103
- assay.text: Affinity for human NK1 receptor (125I-substance P receptor binding test, membrane fraction)
- test.settings: membrane fraction of human NK1 receptor-expressing 293T cells; read-out: IC50 (nM), concentration required for 50% inhibition of 125I-substance P binding
readout.name: IC50 (nM)

| molecule | target.system | result |
| --- | --- | --- |
| Cc1cc(F)ccc1-c1cc(C2(C)CCCC(CC(=O)O)C2)ncc1N(C)C(=O)C(C)(C)c1cc(C(F)(F)F)cc(C(F)(F)F)c1 (stereo not drawn) [Example 4] | UniProtKB P25103 | 2.35 |
| Cc1cc(F)ccc1-c1cc([C@H]2CC[C@@H](CC(=O)O)CC2)nc(C#N)c1N(C)C(=O)C(C)(C)c1cc(C(F)(F)F)cc(C(F)(F)F)c1 [Example 21] | UniProtKB P25103 | 2.36 |
| Cc1cc(F)ccc1-c1cc([C@H]2CC[C@H](CC(=O)O)CC2)nc(C#N)c1N(C)C(=O)C(C)(C)c1cc(C(F)(F)F)cc(C(F)(F)F)c1 [Example 20] | UniProtKB P25103 | 3.27 |
